# Test system: Enterococcus faecium (3 strains)
# measurement.description: MIC range, broader panel of Quotient Bioresearch strains (Table 3)
# experimental.parameters: read-out: MIC Range Median, Enterococcus faecium (3 strains)
Measured MIC50 of individual entries
result.type: MIC50 (µg/mL)

compound	result.type	relation	endpoint.result
Cc1c(-c2ccc3[nH]ncc3c2)ccn2c(=O)c(C(=O)[O-])cc(C3CC3)c12.[K+] [Example 23 K salt]	MIC50	=	0.25
Cc1c(-c2ccc(C(N)=O)cc2)c(F)cn2c(=O)c(C(=O)[O-])cc(C3CC3)c12.[K+] [Example 6 K salt]	MIC50	=	2
Cc1c(-c2ccc(N)cc2)c(F)cn2c(=O)c(C(=O)[O-])cc(C3CC3)c12.[K+] [Example 5 K salt]	MIC50	=	1
Cc1c(C2=CCNCC2)ccn2c(=O)c(C(=O)O)cc(C3CC3)c12	MIC50	>	32
Cc1c(-c2ccc(CN)cc2)ccn2c(=O)c(C(=O)[O-])cc(C3CC3)c12.[K+] [Example 31 K salt]	MIC50	=	4
Cc1c(-c2ccc(N)nc2)ccn2c(=O)c(C(=O)[O-])cc(C3CC3)c12.[K+] [Example 21 K salt]	MIC50	=	1
Cc1c(-c2ccc(N)c(F)c2)c(F)cn2c(=O)c(C(=O)[O-])cc(C3CC3)c12.[K+] [Example 1 K salt]	MIC50	=	2
Cc1c(-c2cc(F)c(N)c(F)c2)ccn2c(=O)c(C(=O)[O-])cc(C3CC3)c12.[K+] [Example 39 K salt]	MIC50	=	0.5
Cc1c(-c2ccncc2)ccn2c(=O)c(C(=O)[O-])cc(C3CC3)c12.[K+] [Example 16 K salt]	MIC50	=	8
Cc1c(-c2cc(F)c(N)cc2F)ccn2c(=O)c(C(=O)[O-])cc(C3CC3)c12.[K+] [Example 28 K salt]	MIC50	=	0.25
Cc1c(-c2ccc(O)cc2)ccn2c(=O)c(C(=O)[O-])cc(C3CC3)c12.[K+] [Example 46 K salt]	MIC50	=	0.5
Cc1c(-c2ccc(N)c(F)c2)ccn2c(=O)c(C(=O)[O-])cc(C3CC3)c12.[K+] [Example 2 K salt]	MIC50	=	0.5

====

# measurement.description: Metabolic stability in liver microsomes +/- S9 fraction (Table 8); also: time not given here
# Format: in vitro ADME
# experimental.parameters: Liver microsomes + S9, mouse, 1 μM
Let's look at some molecules and their measured Mean Parent Remaining.

molecule	Mean Parent Remaining
Cc1c(-c2ccc3[nH]ncc3c2)ccn2c(=O)c(C(=O)[O-])cc(C3CC3)c12.[K+] [Example 23 K salt]	2%
Cc1c(-c2ccc(N)nc2)ccn2c(=O)c(C(=O)[O-])cc(C3CC3)c12.[K+] [Example 21 K salt]	97%
Cc1c(-c2ccc(N)c(F)c2)ccn2c(=O)c(C(=O)[O-])cc(C3CC3)c12.[K+] [Example 2 K salt]	58%
Cc1c(-c2ccc(O)cc2)ccn2c(=O)c(C(=O)[O-])cc(C3CC3)c12.[K+] [Example 46 K salt]	92%
Cc1c(-c2cc(F)c(N)cc2F)ccn2c(=O)c(C(=O)[O-])cc(C3CC3)c12.[K+] [Example 28 K salt]	48%

====

# System: Streptococcus pneumonia (5 strains)
# measurement.description: MIC range, broader panel of Quotient Bioresearch strains (Table 3)
# experimental.parameters: Streptococcus pneumoniae, read-out: MIC Range Low, Streptococcus pneumonia (5 strains)

compound	MIC, µg/mL
Cc1c(-c2ccc(N)c(F)c2)c(F)cn2c(=O)c(C(=O)[O-])cc(C3CC3)c12.[K+] [Example 1 K salt]	0.5
Cc1c(-c2cc(F)c(N)c(F)c2)ccn2c(=O)c(C(=O)[O-])cc(C3CC3)c12.[K+] [Example 39 K salt]	0.12
Cc1c(-c2ccc(N)cc2)c(F)cn2c(=O)c(C(=O)[O-])cc(C3CC3)c12.[K+] [Example 5 K salt]	0.12
Cc1c(-c2cc(F)c(N)cc2F)ccn2c(=O)c(C(=O)[O-])cc(C3CC3)c12.[K+] [Example 28 K salt]	0.03

====

Entries and their AUC(0-inf) values follow.
# measurement.description: Mouse pharmacokinetics, intravenous or oral 10 mg/kg (Table 9)
# Format: in vivo
# experimental.parameters: po, mice, plasma
result.type: AUC(0-inf) (ng·h/mL)

compound	result.type	endpoint.result
Cc1c(-c2ccc3[nH]ncc3c2)ccn2c(=O)c(C(=O)[O-])cc(C3CC3)c12.[K+] [Ex. 23 K salt]	AUC(0-inf)	1750
Cc1c(-c2ccc(N)nc2)ccn2c(=O)c(C(=O)[O-])cc(C3CC3)c12.[K+] [Ex. 21 K salt]	AUC(0-inf)	471
Cc1c(-c2ccc(O)cc2)ccn2c(=O)c(C(=O)[O-])cc(C3CC3)c12.[K+] [Ex. 46 K salt]	AUC(0-inf)	389
Cc1c(-c2ccc(N)c(F)c2)ccn2c(=O)c(C(=O)[O-])cc(C3CC3)c12.[K+] [Ex. 2 K salt]	AUC(0-inf)	642
Cc1c(-c2cc(F)c(N)cc2F)ccn2c(=O)c(C(=O)[O-])cc(C3CC3)c12.[K+] [Ex. 28 K salt]	AUC(0-inf)	710

====

# System: Haemophilus influenza (5 strains)
# measurement.description: MIC range, broader panel of Quotient Bioresearch strains (Table 4)
# Assay type: cell-based, Haemophilus influenzae
# experimental.parameters: Low of the strain panel, read-out: MIC Range Low, Haemophilus influenza (5 strains)

compound	MIC
Cc1c(C2=CCNCC2)ccn2c(=O)c(C(=O)O)cc(C3CC3)c12 [Example 42]	0.03 µg/mL
Cc1c(-c2cc(F)c(N)c(F)c2)ccn2c(=O)c(C(=O)[O-])cc(C3CC3)c12.[K+] [Example 39 K salt]	≤ 0.015 µg/mL
Cc1c(-c2cc(F)c(N)cc2F)ccn2c(=O)c(C(=O)[O-])cc(C3CC3)c12.[K+] [Example 28 K salt]	≤ 0.015 µg/mL
Cc1c(-c2ccc(N)cc2)c(F)cn2c(=O)c(C(=O)[O-])cc(C3CC3)c12.[K+] [Example 5 K salt]	≤ 0.015 µg/mL
Cc1c(-c2ccc(C(N)=O)cc2)c(F)cn2c(=O)c(C(=O)[O-])cc(C3CC3)c12.[K+] [Example 6 K salt]	0.03 µg/mL
Cc1c(-c2ccc3[nH]ncc3c2)ccn2c(=O)c(C(=O)[O-])cc(C3CC3)c12.[K+] [Example 23 K salt]	≤ 0.015 µg/mL
Cc1c(-c2ccc(O)cc2)ccn2c(=O)c(C(=O)[O-])cc(C3CC3)c12.[K+] [Example 46 K salt]	≤ 0.015 µg/mL
Cc1c(-c2ccc(N)c(F)c2)c(F)cn2c(=O)c(C(=O)[O-])cc(C3CC3)c12.[K+] [Example 1 K salt]	≤ 0.015 µg/mL
Cc1c(-c2ccc(N)c(F)c2)ccn2c(=O)c(C(=O)[O-])cc(C3CC3)c12.[K+] [Example 2 K salt]	≤ 0.015 µg/mL
Cc1c(-c2ccc(N)nc2)ccn2c(=O)c(C(=O)[O-])cc(C3CC3)c12.[K+] [Example 21 K salt]	≤ 0.015 µg/mL
Cc1c(-c2ccc(CN)cc2)ccn2c(=O)c(C(=O)[O-])cc(C3CC3)c12.[K+] [Example 31 K salt]	≤ 0.015 µg/mL
Cc1c(-c2ccncc2)ccn2c(=O)c(C(=O)[O-])cc(C3CC3)c12.[K+] [Example 16 K salt]	≤ 0.015 µg/mL

====

# measurement.description: Mouse pharmacokinetics, intravenous or oral 10 mg/kg (Table 9)
# Assay type: in vivo
# experimental.parameters: po, mice, plasma
Please mark T if the recorded Cmax is equal to or greater than 200 ng/mL, and F if it falls below.

compound	class
Cc1c(-c2ccc(N)c(F)c2)ccn2c(=O)c(C(=O)[O-])cc(C3CC3)c12.[K+] [Ex. 2 K salt]	T
Cc1c(-c2ccc(O)cc2)ccn2c(=O)c(C(=O)[O-])cc(C3CC3)c12.[K+] [Ex. 46 K salt]	F
Cc1c(-c2ccc(N)nc2)ccn2c(=O)c(C(=O)[O-])cc(C3CC3)c12.[K+] [Ex. 21 K salt]	T
Cc1c(-c2cc(F)c(N)cc2F)ccn2c(=O)c(C(=O)[O-])cc(C3CC3)c12.[K+] [Ex. 28 K salt]	T
Cc1c(-c2ccc3[nH]ncc3c2)ccn2c(=O)c(C(=O)[O-])cc(C3CC3)c12.[K+] [Ex. 23 K salt]	T

====

# Tested on: Acinetobacter baumannii, quinolone-resistant strains (Quotient Bioresearch catalogue)
# measurement.description: MIC against pathogens resistant against quinolones (Table 5)
# Type: cell-based
# experimental.parameters: Acinetobacter baumannii, GN54
A collection of compounds and their measured MIC
result.type: MIC (µg/mL)

compound	u	endpoint.result
Cc1c(-c2cc(F)c(N)cc2F)ccn2c(=O)c(C(=O)[O-])cc(C3CC3)c12.[K+] [Example 28 K salt]	µg/mL	2
Cc1c(-c2ccc(N)c(F)c2)ccn2c(=O)c(C(=O)[O-])cc(C3CC3)c12.[K+] [Example 2 K salt]	µg/mL	2
Cc1c(-c2ccc3[nH]ncc3c2)ccn2c(=O)c(C(=O)[O-])cc(C3CC3)c12.[K+] [Example 23 K salt]	µg/mL	1
Cc1c(-c2ccc(N)nc2)ccn2c(=O)c(C(=O)[O-])cc(C3CC3)c12.[K+] [Example 21 K salt]	µg/mL	4
Cc1c(-c2ccc(O)cc2)ccn2c(=O)c(C(=O)[O-])cc(C3CC3)c12.[K+] [Example 46 K salt]	µg/mL	2
